Ki overview
biological target: Sodium-dependent dopamine transporter (Rattus norvegicus, UniProt P23977); experiment: Inhibition of [3H]dopamine uptake at DAT in Sprague-Dawley rat striatum synaptosome
Sequence (P23977 whole entry): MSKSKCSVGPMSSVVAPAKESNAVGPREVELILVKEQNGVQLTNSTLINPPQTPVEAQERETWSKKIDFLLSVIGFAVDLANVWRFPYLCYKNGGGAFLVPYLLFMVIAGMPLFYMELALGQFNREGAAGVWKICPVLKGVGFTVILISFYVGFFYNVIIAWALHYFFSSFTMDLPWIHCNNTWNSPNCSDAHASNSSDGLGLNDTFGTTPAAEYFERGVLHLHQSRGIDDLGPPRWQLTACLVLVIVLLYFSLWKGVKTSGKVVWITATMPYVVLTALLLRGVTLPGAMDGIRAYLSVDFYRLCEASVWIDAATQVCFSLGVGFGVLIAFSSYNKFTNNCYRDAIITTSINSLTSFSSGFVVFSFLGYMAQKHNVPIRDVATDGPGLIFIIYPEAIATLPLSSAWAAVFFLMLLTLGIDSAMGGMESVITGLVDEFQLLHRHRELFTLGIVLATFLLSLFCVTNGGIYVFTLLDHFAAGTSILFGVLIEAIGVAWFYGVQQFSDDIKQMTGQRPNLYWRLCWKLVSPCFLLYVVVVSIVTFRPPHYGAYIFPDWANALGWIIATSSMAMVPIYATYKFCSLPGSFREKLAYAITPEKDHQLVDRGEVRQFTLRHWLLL
The figure you give is taken to be in nM; do not add the unit.

Sample answers from the record:
[[record]]
compound_smiles = "Fc1ccc(C(OCCN2CC3CC(C2)N3CC2=Cc3ccccc3C2)c2ccc(F)cc2)cc1"
system_under_test = "Sodium-dependent dopamine transporter (Rattus norvegicus, UniProt P23977)"
experimental_result = 6.5

[[record]]
compound_smiles = "Cc1ccccc1/C=C/CN1C2CC1CN(CCOC(c1ccc(F)cc1)c1ccc(F)cc1)C2"
system_under_test = "Sodium-dependent dopamine transporter (Rattus norvegicus, UniProt P23977)"
experimental_result = 6.25


Reported Ki, molecule Fc1ccc(C(OCCN2CC3CC(C2)N3C/C=C/c2ccccc2)c2ccc(F)cc2)cc1 : ____
9.1

Now consider Fc1ccc(C(OCCN2CC3CC(C2)N3C/C=C/c2ccco2)c2ccc(F)cc2)cc1 and answer again.
8.8

Now consider Fc1ccc(C(OCCN2CC3CC(C2)N3C/C=C/c2cccs2)c2ccc(F)cc2)cc1 and answer again.
12.6
